Recorded values, source patent USRE49850E1.

Study system: CDK4D1 (Homo sapiens, UniProt P11802)
Sequence (P11802 whole entry): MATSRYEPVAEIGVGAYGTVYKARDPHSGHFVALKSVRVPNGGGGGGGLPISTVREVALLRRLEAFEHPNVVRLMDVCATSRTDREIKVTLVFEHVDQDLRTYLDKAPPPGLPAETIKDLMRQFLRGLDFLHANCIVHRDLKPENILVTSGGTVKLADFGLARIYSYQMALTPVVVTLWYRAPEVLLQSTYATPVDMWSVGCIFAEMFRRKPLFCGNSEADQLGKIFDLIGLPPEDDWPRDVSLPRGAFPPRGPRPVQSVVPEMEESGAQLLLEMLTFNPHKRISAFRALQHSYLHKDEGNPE
Sequence (P24385 whole entry partner): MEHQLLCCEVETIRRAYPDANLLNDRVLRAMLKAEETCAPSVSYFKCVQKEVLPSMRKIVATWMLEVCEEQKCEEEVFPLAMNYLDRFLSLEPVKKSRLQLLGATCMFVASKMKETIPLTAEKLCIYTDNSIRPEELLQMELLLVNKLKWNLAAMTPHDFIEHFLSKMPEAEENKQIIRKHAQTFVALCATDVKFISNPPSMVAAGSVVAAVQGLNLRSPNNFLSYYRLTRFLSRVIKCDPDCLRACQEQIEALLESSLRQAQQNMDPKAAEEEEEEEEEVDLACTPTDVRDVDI
Measurement protocol: Kinase assay CDK4/D1 (radiometric or ADP Glo)
Run parameters: apparent Ki calculated from Km (ATP) and IC50; read-out: CDK inhibition Ki CDK4D1
Reported metric: pKi
Answers are plain numbers, as −log10 of the molar value.

Smiles string	Study system	pKi
Cc1nc(NC2CCCC2)sc1-c1nc(Nc2ccc(N3CCCNCC3)cn2)ncc1F	CDK4D1 (Homo sapiens, UniProt P11802)	7.85
CC(=O)N1CCN(c2ccc(Nc3nccc(-c4sc(SC(C)C)nc4C)n3)nc2)CC1	CDK4D1 (Homo sapiens, UniProt P11802)	8.30

// each molecule listed below needs its pKi
1. Cc1nc(SC(C)C)sc1-c1ccnc(Nc2ccc(N3CCN(C)CC3)cn2)n1
2. CNc1nc(C)c(-c2ccnc(Nc3ccc(N4CCN(Cc5ccccc5)CC4)cn3)n2)s1

1: 9.00; 2: 6.77

* * *

Measurement protocol: Pharmacokinetics in mice
Assay type: in vivo, Balb/C mice
Run parameters: male, Balb/C, mouse, plasma; po, 10 mg/kg in mice
Reported metric: half-life (h)
One number for each entry, in h.

Given the molecule `Cc1nc(NC2CCCC2)sc1-c1ccnc(Nc2ccc(N3CCOCC3)cn2)n1` , what is its reported half-life?
5

* * *

For each record, write down the corresponding Ki.
Study system: CDK4D1 (Homo sapiens)
Measurement protocol: Kinase assay CDK4/D1 (radiometric or ADP Glo)
Run parameters: apparent Ki calculated from Km (ATP) and IC50; read-out: CDK inhibition Ki CDK4D1
Express the reported value numerically, then name its unit.

Illustrative cases are given below, each with its answer.
Smiles string	Reported metric	Result
CNc1nc(C)c(-c2nc(Nc3ccc(N4CCC(N(C)C)CC4)cn3)ncc2F)s1	Ki	2 nM
CCn1c(C)c(-c2ccnc(Nc3ccc(N4CCN(C)CC4)cn3)n2)sc1=O	Ki	33 nM
CNc1nc(C)c(-c2nc(Nc3ccc(N4CCN(C)CC4)cn3)ncc2C#N)s1	Ki	4 nM
CNc1nc(C)c(-c2nc(Nc3ccc(N4CCN(Cc5ccccc5)CC4)cc3)ncc2C#N)s1	Ki	1 nM
Cc1nc(NC2CCCC2)sc1-c1ccnc(Nc2ccc(N3CCOCC3)cn2)n1	Ki	5 nM
CNc1nc(C)c(-c2ccnc(Nc3ccc(N4CCN(C(C)=O)CC4)cn3)n2)s1	Ki	578 nM
CNc1nc(C)c(-c2nc(Nc3ccc(N4CCN(Cc5ccccc5)CC4)cn3)ncc2C#N)s1	Ki	16 nM

Now for the molecule whose Ki we want.
Given the molecule `Cc1nc(NC2CCCC2)sc1-c1nc(Nc2ccc(N3CCC(N(C)C)CC3)cn2)ncc1F` , what is its reported Ki?
1 nM

* * *

Measurement protocol: Pharmacokinetics in mice
Format: in vivo, Balb/C mice
Run parameters: male, Balb/C, mouse, plasma; po, 10 mg/kg in mice
Reported metric: AUC (µM·h)
Give bare numbers, in µM·h.

Given the molecule `Cc1nc(NC2CCCC2)sc1-c1ccnc(Nc2ccc(N3CCOCC3)cn2)n1` , what is its reported AUC?
5.9

* * *

Entries below carry reported Ki on CDK6D3 (Homo sapiens).
Sequence (Q00534 whole entry): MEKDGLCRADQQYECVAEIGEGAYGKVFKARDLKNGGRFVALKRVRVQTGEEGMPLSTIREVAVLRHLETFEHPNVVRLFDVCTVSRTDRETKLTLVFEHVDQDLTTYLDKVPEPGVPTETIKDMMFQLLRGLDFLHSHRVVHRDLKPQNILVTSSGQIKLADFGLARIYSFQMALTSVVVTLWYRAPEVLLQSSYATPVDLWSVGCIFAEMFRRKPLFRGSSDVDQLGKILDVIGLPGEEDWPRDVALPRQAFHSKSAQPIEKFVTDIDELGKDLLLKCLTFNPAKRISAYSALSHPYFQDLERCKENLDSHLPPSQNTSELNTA
Sequence (P30281 whole entry partner): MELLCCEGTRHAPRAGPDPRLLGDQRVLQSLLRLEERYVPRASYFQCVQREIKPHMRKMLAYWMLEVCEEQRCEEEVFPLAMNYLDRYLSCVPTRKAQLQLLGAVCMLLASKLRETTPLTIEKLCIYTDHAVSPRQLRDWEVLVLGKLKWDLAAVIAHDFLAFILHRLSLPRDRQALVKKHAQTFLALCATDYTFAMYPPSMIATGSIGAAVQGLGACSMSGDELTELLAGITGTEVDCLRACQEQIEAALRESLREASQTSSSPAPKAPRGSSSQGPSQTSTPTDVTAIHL
Express the reported value numerically, then name its unit.

Compound	Ki
CNc1nc(C)c(-c2nc(Nc3ccc(N4CCN(S(C)(=O)=O)CC4)cn3)ncc2F)s1 [Compound 52]	297 nM
CCc1nc(C)c(-c2ccnc(Nc3ccc(N4CCNCC4)cn3)n2)s1 [Compound 7]	237 nM
Cc1nc(N(C)C)sc1-c1ccnc(Nc2ccc(N3CCN(C)CC3)cn2)n1 [Compound 45]	154 nM

// each compound listed below needs its Ki
1. CSc1nc(C)c(-c2ccnc(Nc3ccc(N4CCNCC4)cn3)n2)s1 [Compound 20]
2. CSc1nc(C)c(-c2ccnc(Nc3ccc(N4CCN(C(C)=O)CC4)cn3)n2)s1 [Compound 22]
3. Cc1[nH]c(=O)sc1-c1ccnc(Nc2ccc(N3CCN(C)CC3)cn2)n1 [Compound 92]
4. CNc1nc(C)c(-c2nc(Nc3ccc(N4CCOCC4)cn3)ncc2C#N)s1 [Compound 37]
5. Cc1nc(C)c(-c2nc(Nc3ccc(N4CCN(C)CC4)cn3)ncc2C#N)s1 [Compound 5]

["20 nM", "1950 nM", "155 nM", "64 nM", "27 nM"]

Given the compound Cc1nc(NC(C)C)sc1-c1ccnc(Nc2ccc(N3CCOCC3)cn2)n1 [Compound 58] , what is its reported Ki?
82 nM

* * *

Study system: CDK4D1 (Homo sapiens)
Measurement protocol: Kinase assay CDK4/D1 (radiometric or ADP Glo)
Run parameters: apparent Ki calculated from Km (ATP) and IC50; read-out: CDK inhibition Ki CDK4D1
For each record, write down the corresponding pKi.
Answers are plain numbers, as −log10 of the molar value.

Smiles string	Study system	pKi
CC(=O)N1CCN(c2ccc(Nc3nccc(-c4sc(N(C)C5CCCC5)nc4C)n3)nc2)CC1	CDK4D1 (Homo sapiens)	8.00

// each molecule listed below needs its pKi
1. FC(F)(F)c1nc(NC2CCCC2)sc1-c1ccnc(Nc2ccc(N3CCOCC3)cn2)n1
2. CNc1nc(C)c(-c2ccnc(Nc3ccc(N4CCN(Cc5ccccc5)CC4)cc3)n2)s1
3. Cc1nc(N(C)C2CCCC2)sc1-c1ccnc(Nc2ccc(N3CCN(C)CC3)cn2)n1
4. Cc1nc(NC2CCCC2)sc1-c1ccnc(Nc2ccc(N3CCCCC3)cn2)n1
5. CNc1nc(C)c(-c2nc(Nc3ccc(N4CCN(C)CC4)cn3)ncc2F)s1
6. CCc1nc(C)c(-c2nc(Nc3ccc(N4CCN(C(C)=O)CC4)cn3)ncc2Cl)s1

1. 8.10
2. 8.22
3. 8.70
4. 7.15
5. 8.70
6. 6.60

Request: pKi, test system CDK4D1 (Homo sapiens), entry `Cc1nc(Nc2ccccc2)sc1-c1ccnc(Nc2ccc(N3CCNCC3)cn2)n1`
8.30

* * *

Measurement protocol: Pharmacokinetics in rat
Assay type: in vivo, Wistar Rat
Run parameters: male, Wistar, plasma; po, 20 mg/kg in rat
Method: For pharmacokinetic measurements, healthy male adult Balb/C mice (weighing 20-25 g) or Wistar Rat (weighing 250-350 g) were split into weight matched groups of 3 per group. […] Quantitative analysis of compound in plasma was carried out using LC-MS/MS methods. […] Oral bioavailability (% F) was calculated by taking the ratio of dose-normalised AUC values from oral versus parenteral (IV) dosing.
Reported metric: Cmax (µM)
Numbers only, in µM.

Given the molecule `CNc1nc(C)c(-c2nc(Nc3ccc(N4CCN(C(C)=O)CC4)cn3)ncc2C#N)s1` , what is its reported Cmax?
0.6

* * *

Entries below carry reported Ki on CDK 2A (Homo sapiens).
Answers are plain numbers, in nM.

Illustrative cases are given below, each with its answer.
Compound	Reported metric	U	Recorded number
CNc1nc(C)c(-c2nc(Nc3ccc(N4CCN(C(C)=O)CC4)cn3)ncc2C#N)s1 [Compound 34]	Ki	nM	4470
CC(=O)N1CCN(c2ccc(Nc3nccc(-c4sc(N(C)C)nc4C)n3)nc2)CC1 [Compound 48]	Ki	nM	976

Now for the compound whose Ki we want.
Given the compound CCn1c(C)c(-c2ccnc(Nc3ccc(N4CCN(C)CC4)cn3)n2)sc1=O [Compound 94] , what is its reported Ki?
1340

* * *

Study system: CDK4D1 (Homo sapiens, UniProt P11802)
Construct: purchased Eurofins Pharma Discovery or Reaction Biology Corporation (service)
Measurement protocol: Kinase assay CDK4/D1 (radiometric or ADP Glo)
Assay type: biochemical
Run parameters: apparent Ki calculated from Km (ATP) and IC50; read-out: CDK inhibition Ki CDK4D1
Reported metric: log10(Ki) (log10 of the value in µM)
Record value = log10 of Ki given in µM.

Illustrative cases are given below, each with its answer.
Smiles string	log10(Ki)
CCc1nc(C)c(-c2ccnc(Nc3ccc(N4CCN(CC)CC4)cn3)n2)s1	-2.00
Cc1nc(C)c(-c2nc(Nc3ccc(N4CCNCC4)cn3)ncc2C#N)s1	-1.51
Cc1nc(C)c(-c2ccnc(Nc3ccc(N4CCNCC4)cn3)n2)s1	-1.26
Cc1nc(NC2CCCC2)sc1-c1ccnc(Nc2ccc(N3CCC(N)CC3)cn2)n1	-2.52
CC(=O)N1CCN(c2ccc(Nc3ncc(F)c(-c4sc(NC5CCCC5)nc4C)n3)nc2)CC1	-1.47
CSc1nc(C)c(-c2ccnc(Nc3ccc(N4CCNCC4)cn3)n2)s1	-2.30
CC(=O)N1CCN(c2ccc(Nc3nccc(-c4sc(N(C)C)nc4C)n3)nc2)CC1	-1.06
CC(=O)N1CCN(c2ccc(Nc3nccc(-c4sc(NC5CCCC5)nc4C)n3)nc2)CC1	-2.22
FC(F)(F)c1nc(NC2CCCC2)sc1-c1ccnc(Nc2ccc(N3CCNCC3)cn2)n1	-2.10
Cc1nc(NC2CCCC2)sc1-c1ccnc(Nc2ccc(N3CCCNCC3)cn2)n1	-3.00

// each molecule listed below needs its log10(Ki)
1. Cc1nc(N(C)C)sc1-c1nc(Nc2ccc(N3CCN(C)CC3)cn2)ncc1F
2. Cc1nc(NC2CCCC2)sc1-c1ccnc(Nc2ccc(N3CCN(C)CC3)cn2)n1
3. COc1nc(C)c(-c2ccnc(Nc3ccc(N4CCN(C)CC4)cn3)n2)s1
4. CNc1nc(C)c(-c2ccnc(Nc3ccc(N4CCNCC4)cn3)n2)s1

-2.70
-2.70
-0.51
-2.22

// each molecule listed below needs its log10(Ki)
1. Cc1nc(N(C)c2ccccc2)sc1-c1ccnc(Nc2ccc(N3CCN(C)CC3)cn2)n1
2. Cc1nc(Nc2ccccc2)sc1-c1ccnc(Nc2ccc(N3CCN(C)CC3)cn2)n1

-1.59
-1.72
